Each entry below carries its reported pIC50.
System: RH7777
Experiment: Antiproliferative effect against RH7777 cell line using sulforhodamine B(SRB) assay
Format: functional, cell-based
Details: Rattus norvegicus
pIC50: −log10 of the molar value.

Example cases with answers are listed next.
MOLECULE	pIC50
CCCCCCCCCCCCCCCCCCNC(=O)[C@H]1CSC(c2ccc(C)cc2)N1 (stereo not given in full)	< 4.70
CCCCCCCCCCCCCCCCCCNC(=O)[C@H]1CSC(c2ccccc2)N1C(C)=O (stereo not given in full)	< 4.70
CCCCCCCCCCCCCCCCCCNC(=O)[C@H]1CSC(Cc2ccccc2)N1 (stereo not given in full)	< 4.70
CCCCCCCCCCCCCCCCCCNC(=O)[C@H]1CSC(c2cccc(O)c2)N1 (stereo not given in full)	4.51

Please find the next molecule below.
In one line, give reported pIC50 of the entry CCCCCCCCCCCCCCCCCCNC(=O)[C@H]1CSC(c2ccc(N(C)C)cc2)N1 (stereo not given in full) .
< 4.70
